# System: OVCAR-3 (ovarian) cells
# assay_name: Antiproliferative sulforhodamine B assay, OVCAR-3
# Type: cell-based
# run_parameters: Homo sapiens; OVCAR-3 ovary, 48 h treatment, SRB
So basically: is GI50 under 4 µg/mL? Then Condition met. Not under? Then Condition not met.

compound	experimental_system	class_assignment
CC1COC(C)(C)C2=C1c1cccc(O)c1CC2 (stereo not shown) [3a]	OVCAR-3 (ovarian) cells	Condition not met
COc1cccc2c1CCC1=C2C(C)COC1(C)C (stereo not shown) [2a]	OVCAR-3 (ovarian) cells	Condition not met
COc1cccc2c1C(=O)c1c(O)c3c(c(O)c1C2=O)C[C@@](O)(C(=O)CO)C[C@@H]3O[C@H]1C[C@H](N)[C@H](O)[C@H](C)O1 [Doxorubicine, doxorubicin, reference compound]	OVCAR-3 (ovarian) cells	Condition met
COc1cc2c(cc1O)C1=C(CC2)C(C)(C)OCC1C (stereo not shown) [3d]	OVCAR-3 (ovarian) cells	Condition not met
COc1ccc2c(c1)C1=C(CC2)C(C)(C)OCC1C (stereo not shown) [2c]	OVCAR-3 (ovarian) cells	Condition not met
COc1cc2c(cc1OC)C1=C(CC2)C(C)(C)OCC1C (stereo not shown) [2d]	OVCAR-3 (ovarian) cells	Condition not met
CC1COC(C)(C)C2=C1c1cc(O)ccc1CC2 (stereo not shown) [3c]	OVCAR-3 (ovarian) cells	Condition met
COc1ccc2c(c1)CCC1=C2C(C)COC1(C)C (stereo not shown) [2b]	OVCAR-3 (ovarian) cells	Condition not met
CC1COC(C)(C)C2=C1c1ccc(O)cc1CC2 (stereo not shown) [3b]	OVCAR-3 (ovarian) cells	Condition not met
